Values were extracted from the supplement of paper PMC9732359.

Test: protein stability index of a GFP-peptide fusion (yeast GPS) (PSI 1-4); higher = more stable; sorted into four equal gates, so the index is relative within each strain
Details: pdr5∆
Reported protein stability index by item:
Write the value as a bare number.

VGGTTSISGFKEALLGQ [ARP9]    2.53

Need protein stability index, item DEDIITIFKYLTDKDAF [CDC53]
3.15

Need protein stability index, item EYSYVDSNMDSISSVVS [RPN4]
3.26

====

Test: protein stability index of a GFP-peptide fusion (yeast GPS) (PSI 1-4); higher = more stable; sorted into four equal gates, so the index is relative within each strain
Settings: san1∆
test.readout: protein stability index
Write the value as a bare number.

Need protein stability index, item ERLHELKKLQSDIESAN [SMC1]
3.19

Need protein stability index, item CLLSIPKSTKGKILTIK [YML103C/NUP188]
1.66

Need protein stability index, item ADIENSTSGDPSEFHCL [SSN2]
3.21
